target: T1, Full length recombinant HBcAg (rHBcAg) encompassing residues 1-183 (hepatitis B virus, UniProt P03146 1-183); assay: competition EIA, HBcAg coated 5 ug/ml, peptide 25 ug/ml together with mAb 4-2 (competitor); OD of bound mAb
T1 construct: range 1-183; also called hepatitis B virus core antigen
T1 sequence (P03146 whole entry, the tested form may be a part): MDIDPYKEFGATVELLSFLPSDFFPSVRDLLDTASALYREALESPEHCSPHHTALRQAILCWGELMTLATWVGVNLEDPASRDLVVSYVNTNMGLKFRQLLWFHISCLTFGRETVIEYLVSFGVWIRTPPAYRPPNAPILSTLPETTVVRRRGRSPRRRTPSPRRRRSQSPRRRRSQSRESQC
Observed property: OD at 490 nm (OD)

1) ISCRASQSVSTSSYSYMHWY [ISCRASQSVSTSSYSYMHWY (SEQ. ID. No. 17)] = 1.39
2) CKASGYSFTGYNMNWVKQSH (also called Peptide # 26) [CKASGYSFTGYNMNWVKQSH (SEQ. ID. No. 29)] = 1.35
3) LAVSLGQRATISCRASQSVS [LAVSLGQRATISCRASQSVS (SEQ. ID. No. 16)] = 1.03
4) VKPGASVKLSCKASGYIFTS (also called Peptide # 2; Pept. #2) [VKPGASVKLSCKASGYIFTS (SEQ. ID. No. 5)] = 0.698
5) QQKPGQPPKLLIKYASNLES [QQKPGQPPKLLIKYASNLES (SEQ. ID. No. 19)] = 1.24
6) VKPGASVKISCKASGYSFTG (also called Peptide # 25) [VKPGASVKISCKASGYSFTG (SEQ. ID. No. 28)] = 1.2

All values here come from patent US20020058247A1.
